# PROCEDURE DETAILS: Half-life in male Sprague-Dawley rat at 10 mg/kg, ip measured at 0 to 1440 mins by LC-MS/MS analysis
# Format: ADME, organism-based
# STATED CONDITIONS: in vivo, time 0-1440 min
OBSERVED PROPERTY: half-life (min)
Give a bare numeral; the unit min is implied.

Prompt line: Annotate the compound `C[C@@H]1O[C@H](OC[C@H]2O[C@@H](OCCc3ccc(O)c(O)c3)[C@H](O)[C@@H](OC(=O)/C=C/c3ccc(O)c(O)c3)[C@@H]2O)[C@H](O)[C@H](O)[C@H]1O` with its measured half-life.
Response line: 34.8
